The measurements presented in this section are drawn from BindingDB's records for doi:10.7270/Q2TX3CTT.

target: Glycogen synthase kinase-3 beta (Homo sapiens); assay: concentration-response blocking of human GSK3B – biochemical, luminescence, cell-free homogeneous, retest, dose response (AID 434954)
Sequence (P49841 whole entry): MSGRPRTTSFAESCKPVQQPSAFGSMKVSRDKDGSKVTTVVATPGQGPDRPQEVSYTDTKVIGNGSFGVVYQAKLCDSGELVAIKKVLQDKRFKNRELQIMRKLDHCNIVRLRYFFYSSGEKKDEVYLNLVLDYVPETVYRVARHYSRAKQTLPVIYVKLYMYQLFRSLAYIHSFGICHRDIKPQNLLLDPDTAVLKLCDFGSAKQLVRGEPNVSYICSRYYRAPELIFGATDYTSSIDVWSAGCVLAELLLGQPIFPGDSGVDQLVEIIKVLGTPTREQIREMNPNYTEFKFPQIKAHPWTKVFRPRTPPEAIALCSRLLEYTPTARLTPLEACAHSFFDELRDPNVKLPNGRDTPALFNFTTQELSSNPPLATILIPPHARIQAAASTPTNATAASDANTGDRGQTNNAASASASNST
measurementType: EC50 (µM)
# value in µM; strip the unit string

Consider the following illustrative entries.
Notebook: pull reported EC50 for Glycogen synthase kinase-3 beta (Homo sapiens), entry COc1ccc(C(=O)ON=C(N)c2ccccn2)cc1 13.2

Notebook: pull reported EC50 for Glycogen synthase kinase-3 beta (Homo sapiens), entry O=c1cc(-c2ccc(O)c(O)c2)oc2cc(O)cc(O)c12 3.81

Consider the additional compound presented here.
Notebook: pull reported EC50 for Glycogen synthase kinase-3 beta (Homo sapiens), entry CCCCn1nc(NC(=O)CC)c2cc3cc(OC)ccc3nc21 43.6
